Tested on: HT29 colon cancer cells
Experiment: MTT cytotoxicity assay, HT 29
Format: cell-based, human
Conditions: Homo sapiens, 72 h
pIC50: −log10 of the molar value.
Readings of pIC50 for the listed compounds
ENDPOINT LABEL: pIC50

| COMPOUND | ENDPOINT LABEL | DATA VALUE |
| --- | --- | --- |
| NC(CC(=O)NNc1nc2ccccc2n2cccc12)c1ccccc1Cl (stereo not shown) [SC160] | pIC50 | 4.77 |
| O=C(NNc1nc2ccccc2n2cccc12)c1ccc2[nH]ccc2c1 [SC156] | pIC50 | < 4.70 |
| NCCC(=O)NNc1nc2ccccc2n2cccc12 [SC154] | pIC50 | < 4.70 |
| O=C(NNc1nc2ccccc2n2cccc12)C1CSCN1 (stereo not shown) [SC153] | pIC50 | 4.85 |
| N#Cc1ccc(C(N)CC(=O)NNc2nc3ccccc3n3cccc23)cc1 (stereo not shown) [SC163] | pIC50 | < 4.70 |
| O=C(NNc1nc2cc(F)ccc2n2cccc12)c1cnccn1 [SC144] | pIC50 | 6.05 |
| NC(CC(=O)NNc1nc2ccccc2n2cccc12)c1ccc(Cl)cc1 (stereo not shown) [SC161] | pIC50 | 6.52 |
| COc1ccc(C(N)CC(=O)NNc2nc3ccccc3n3cccc23)cc1 (stereo not shown) [SC164] | pIC50 | < 4.70 |
| NC(CC(=O)NNc1nc2ccccc2n2cccc12)c1ccc(C(F)(F)F)cc1 (stereo not shown) [SC165] | pIC50 | < 4.70 |
| O=C(NNc1nc2ccccc2n2cccc12)c1ccccc1F [SC166] | pIC50 | 4.89 |
| O=C(NNc1nc2ccccc2n2cccc12)c1ccc2cc[nH]c2c1 [SC157] | pIC50 | < 4.70 |
| O=C(NNc1nc2ccccc2n2cccc12)c1c[nH]c2ccccc12 [SC158] | pIC50 | < 4.70 |
| O=C(NNc1nc2ccccc2n2cccc12)c1cc2ccccc2[nH]1 [SC155] | pIC50 | < 4.70 |

---

System: HEY ovarian cancer cells
Experiment: MTT cytotoxicity assay, HEY
Assay type: cell-based, human
Conditions: Homo sapiens; HEY ovarian cancer cells; read-out: 50% Cytotoxic concentration (IC50)
pIC50: −log10 of the molar value.
ENDPOINT LABEL: pIC50

| SMILES NOTATION | DATA VALUE |
| --- | --- |
| O=C(NNC(=O)c1c(O)c2ccccc2[nH]c1=O)c1ccccc1 | 5.00 |
| CCC(=O)NNC(=O)c1c(O)c2ccccc2[nH]c1=O | 5.52 |
| COc1ccccc1C(=O)NNC(=O)c1cc2ccccc2cc1O | 4.96 |
| O=C(CSc1nnc(Cc2ccccc2)n1-c1cccc(Cl)c1)NNC(=O)c1ccccc1O | 5.70 |
| Cc1cccc(C(=O)NNC(=O)CSc2nc(-c3ccccc3)nc3ccc(F)cc23)c1 | 5.10 |
| COc1ccc(C(=O)NNC(=O)c2ccc3ccccc3c2O)cc1 | 4.92 |
| O=C(NNC(=O)c1c(O)c2ccccc2[nH]c1=O)c1cccc([N+](=O)[O-])c1 | 5.40 |
| Cc1cccc(C(=O)NNC(=O)CSc2nc3ccccc3cc2C)c1 | 4.92 |
| CCn1c(=O)c(C(=O)NNC(=O)c2ccccc2F)c(O)c2ccccc21 | 5.70 |
